# target or test system: MTHFD2 recombinant human enzyme (Homo sapiens, UniProt P13995)
# Sequence (P13995 36-350): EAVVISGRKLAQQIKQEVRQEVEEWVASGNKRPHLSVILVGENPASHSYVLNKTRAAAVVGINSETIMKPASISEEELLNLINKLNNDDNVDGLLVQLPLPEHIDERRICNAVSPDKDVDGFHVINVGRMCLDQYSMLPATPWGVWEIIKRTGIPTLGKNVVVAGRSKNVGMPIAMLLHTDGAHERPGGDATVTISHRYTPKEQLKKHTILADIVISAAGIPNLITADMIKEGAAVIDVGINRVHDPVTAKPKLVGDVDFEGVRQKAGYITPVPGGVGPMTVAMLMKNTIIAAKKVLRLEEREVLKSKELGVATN
# experimental protocol: MTHFD2 inhibition assay (NAD(P)H-Glo luminescence)
# particulars: selectivity of MTHFD2 inhibition over MTHFD1, band
measurement type: MTHFD1/MTHFD2 IC50 ratio

Known results for molecules:
{"molecule smiles": "COC[C@H]1CN(c2cc(Cl)c3c4c(c(=O)oc3c2C)CN(C(=O)c2cc(N(C)C)c(C(=O)NS(=O)(=O)N3CCC[C@H]3C(F)(F)F)cc2F)CC4)CCN1C", "MTHFD1/MTHFD2 IC50 ratio": "J (>30)"}
{"molecule smiles": "COC[C@H]1CN(c2cc(C)c3c4c(c(=O)oc3c2C)CN(C(=O)c2cc(N(C)C)c(C(=O)NS(=O)(=O)N3C5CCC3COC5)cc2F)CC4)CCN1C", "MTHFD1/MTHFD2 IC50 ratio": "J (>30)"}
{"molecule smiles": "COC[C@H]1CN(c2cc(C)c3c4c(c(=O)oc3c2C)CN(C(=O)c2ccc(C(=O)NS(=O)(=O)N(C)C3CCCC3)c(OC)c2F)CC4)CCN1C", "MTHFD1/MTHFD2 IC50 ratio": "H (>9.0 to 30)"}
{"molecule smiles": "COC[C@H]1CN(c2ccc3c4c(c(=O)oc3c2C)CN(C(=O)c2ccc(C(=O)NS(=O)(=O)C3(C)CC3)c(N3CCCC3)c2)CC4)CCN1C", "MTHFD1/MTHFD2 IC50 ratio": "F (<3)"}
{"molecule smiles": "COC[C@H]1CN(c2ccc3c4c(c(=O)oc3c2Cl)CN(C(=O)c2ccc(C(=O)NS(=O)(=O)C3(C)CC3)c(OC3CCC3)c2)CC4)CCN1C", "MTHFD1/MTHFD2 IC50 ratio": "F (<3)"}
{"molecule smiles": "COC[C@H]1CN(c2cc(C)c3c4c(c(=O)oc3c2C)CN(C(=O)c2cc(N(C)C)c(C(=O)NS(=O)(=O)N3CC[C@@H](F)C3)cc2F)CC4)CCN1C", "MTHFD1/MTHFD2 IC50 ratio": "H (>9.0 to 30)"}

Please turn your attention to the following entry.
Challenge: I am curious: what MTHFD1/MTHFD2 IC50 ratio value has been reported for COC[C@H]1CN(c2cc(C)c3c4c(c(=O)oc3c2C)CN(C(=O)c2ccc(C(=O)NS(=O)(=O)C3(C)CC3)c(N(C)C)c2)CC4)CCN1C ?
Response given: H (>9.0 to 30)

----------
# target or test system: MTHFD2 recombinant human enzyme (Homo sapiens, UniProt P13995)
# experimental protocol: MTHFD2 inhibition assay (NAD(P)H-Glo luminescence)
# particulars: selectivity of MTHFD2 inhibition over MTHFD1, band
measurement type: MTHFD1/MTHFD2 IC50 ratio

Solved entries (count: 4):
{"compound": "COC[C@H]1CN(c2cc(C)c3c4c(c(=O)oc3c2C)CN(C(=O)c2ccc(C(=O)NS(=O)(=O)N(C)C)c(OC3C5CC6CC(C5)CC3C6)c2)CC4)CCN1C (stereo partly drawn)", "MTHFD1/MTHFD2 IC50 ratio": "F (<3)"}
{"compound": "COC[C@H]1CN(c2ccc3c4c(c(=O)oc3c2C)CN(C(=O)c2cc(N3CCC3)c(C(=O)NS(=O)(=O)N3CCCC3)cc2F)CC4)CCN1C", "MTHFD1/MTHFD2 IC50 ratio": "G (^ 3 to 9.0)"}
{"compound": "COC[C@H]1CN(c2cc(C)c3c4c(c(=O)oc3c2C)CN(C(=O)c2cc(OC3CCC3)c(C(=O)NS(=O)(=O)N(C)C)cc2F)CC4)CCN1C", "MTHFD1/MTHFD2 IC50 ratio": "G (^ 3 to 9.0)"}
{"compound": "COC[C@H]1CN(c2cc(C)c3c4c(c(=O)oc3c2C)CN(C(=O)c2cc(F)c(C(=O)NS(=O)(=O)N3CCCC3)cc2C)CC4)CCN1C", "MTHFD1/MTHFD2 IC50 ratio": "J (>30)"}

Challenge: Please report the recorded MTHFD1/MTHFD2 IC50 ratio for COC[C@H]1CN(c2cc(Cl)c3c4c(c(=O)oc3c2C)CN(C(=O)c2cc(N(C)C)c(C(=O)NS(=O)(=O)N(C)C)cc2Cl)CC4)CCN1C .
Response given: J (>30)

Challenge: Tell me the measured MTHFD1/MTHFD2 IC50 ratio of COC[C@H]1CN(c2cc(C)c3c4c(c(=O)oc3c2C)CN(C(=O)c2cc(N(C)C)c(C(=O)NS(=O)(=O)N3C5CCC3CC5)cc2F)CC4)CCN1C , please.
Response given: J (>30)

Challenge: So what's the measured MTHFD1/MTHFD2 IC50 ratio for this one? COC[C@H]1CN(c2ccc3c4c(c(=O)oc3c2C)CN(C(=O)c2cc(Cl)c(C(=O)NS(=O)(=O)C3(C)CC3)c(N3CC5CC5C3)c2)CC4)CCN1C (stereo partly drawn)
Response given: J (>30)

Challenge: Find the recorded MTHFD1/MTHFD2 IC50 ratio belonging to [2H]C([2H])([2H])Oc1cc(C(=O)N2CCc3c(c(=O)oc4c(C)c(N5CCN(C)[C@@H](COC)C5)cc(C)c34)C2)c(F)cc1C(=O)NS(=O)(=O)N1C2CCC1CC2 and report it.
Response given: J (>30)

Challenge: Suppose we examine the compound COC[C@H]1CN(c2cc(Cl)c3c4c(c(=O)oc3c2C)CN(C(=O)c2cc(OC)c(C(=O)NS(=O)(=O)N3C5CCC3CC5)cc2F)CC4)CCN1C ; what MTHFD1/MTHFD2 IC50 ratio value has been reported?
Response given: J (>30)

Challenge: Give its MTHFD1/MTHFD2 IC50 ratio value. Item: COC[C@H]1CN(c2cc(C)c3c4c(c(=O)oc3c2C)CN(C(=O)c2ccc(C(=O)NS(=O)(=O)N(C)C)c(N3C5CCC3CC5)c2F)CC4)CCN1C
Response given: F (<3)

Challenge: Would you mind telling me what MTHFD1/MTHFD2 IC50 ratio value was observed for COC[C@H]1CN(c2cc(C)c3c4c(c(=O)oc3c2C)CN(C(=O)c2ccc(C(=O)NS(=O)(=O)N3CCCC3)c(N3C5CCC3CC5)c2)CC4)CCN1C ?
Response given: F (<3)

Source listed as patent US12662489B2.
